Data provenance is PubChem BioAssay.

- test.details: small-molecule microarray binders of probe aNog, primary screen, biochemical, biotinylated probe, 635/667 nm fluorescence (AID 1115);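 also: probe is biotinylated aNog protein used at 0.15 µg/mL for 1 h at 4 C; z-score combines 667 nm fluorescence of each spot with its signal to noise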
- assay.setup: higher = more signal
experimental.readout: composite z-score
Number, no unit, nothing else.

### Prompt I have this compound here, "CN(C)CCCNC(=O)[C@@]1(Cc2ccccc2I)c2ccccc2C(=O)N(Cc2ccccc2)[C@H]1c1ccc(CO)cc1" , and I need its recorded composite z-score.
### Response 0.84

### Prompt I have this compound here, "COC(=O)[C@@]1(Cc2ccc(F)cc2)[C@H]2c3cc(C(=O)N(C)C)n(CCN4CCOCC4)c3C[C@H]2CN1C(=O)c1ccccc1" , and I need its recorded composite z-score.
### Response 0.932

### Prompt I have this compound here, "CO[C@H]1O[C@H](CO)[C@@H](OC(=O)Nc2ccccc2)[C@@H]2OC(=O)[C@H](Cc3ccccc3)C/C=C/C[C@@H](Cc3ccccc3)C(=O)O[C@@H]12" , and I need its recorded composite z-score.
### Response 0.696

### Prompt I have this compound here, "COCCOC(=O)N1C(=O)[C@@]2(c3cc(C#CC4(O)CCCCCC4)ccc31)[C@H](C(=O)NC[C@H](O)c1ccccc1)[C@H]1C(=O)O[C@H](c3ccccc3)[C@H](c3ccccc3)N1[C@@H]2c1ccc(O)cc1" , and I need its recorded composite z-score.
### Response -0.111

### Prompt I have this compound here, "C[C@]1(C(=O)NCC(F)(F)F)c2ccccc2C(=O)N(Cc2ccc(OC(F)(F)F)cc2)[C@H]1c1ccc(CO)cc1" , and I need its recorded composite z-score.
### Response -0.519

### Prompt I have this compound here, C=CCC(OC(C)=O)[C@@H]1[C@@H](N(Cc2ccc(-c3cccc(C(F)(F)F)c3)o2)C(=O)c2cccc3ccccc23)c2cc(OCCCO)ccc2N1C(=O)c1ccc2ccccc2c1 (stereo partly drawn) , and I need its recorded composite z-score.
### Response 0.0649

### Prompt I have this compound here, "CC(C)C[C@@H]1NC(=O)[C@@H]2C[C@H](C(=O)O)[C@H](c3ccc(O)cc3)N2C1=O" , and I need its recorded composite z-score.
### Response 0.116

### Prompt I have this compound here, CN1C(=O)C2C=CC(C(O)c3ccc(-c4ccccc4)s3)N(Nc3ccccc3)C2C1=O (stereo not drawn) , and I need its recorded composite z-score.
### Response 1.49

### Prompt I have this compound here, "CC(C)C(=C=CC[C@@H](O)c1cccc(OCCO)c1)CCO" , and I need its recorded composite z-score.
### Response -0.273

### Prompt I have this compound here, "NCCCC[C@@H]1NC(=O)[C@H]2C[C@@H](C(=O)NCc3ccc(F)cc3)[C@@H](c3cccc(OCCO)c3)N2C1=O" , and I need its recorded composite z-score.
### Response 0.127

### Prompt I have this compound here, "NC(=O)NCC#Cc1ccc2c(c1)[C@]1(C(=O)N2)[C@H](C(=O)Nc2nc3ccccc3s2)[C@H]2C(=O)O[C@H](c3ccccc3)[C@H](c3ccccc3)N2[C@@H]1c1ccc(OCCO)cc1" , and I need its recorded composite z-score.
### Response -0.464

### Prompt I have this compound here, C=CCC(OC(C)=O)[C@@H]1[C@@H](N(Cc2cc3ccccc3o2)C(=O)c2cccc3ccccc23)c2cc(OCCCO)ccc2N1C(=O)c1ccc2ccccc2c1 (stereo partly drawn) , and I need its recorded composite z-score.
### Response -0.12

### Prompt I have this compound here, "COCCOC(=O)N1C(=O)[C@@]2(c3cc(C#CCC(C(=O)OC)C(=O)OC)ccc31)[C@H](C(=O)N1CCc3cc(OC)c(OC)cc3C1)[C@H]1C(=O)O[C@H](c3ccccc3)[C@H](c3ccccc3)N1[C@@H]2c1ccc(O)cc1" , and I need its recorded composite z-score.
### Response -0.537

----------
- Tested on: Sam68 (KHDRBS1)
- test.details: Sam68 small-molecule binders, primary screen, biochemical, small-molecule microarray, 635 nm fluorescence (AID 1125);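 also: score merges 667 nm channel intensity with signal to noise over triplicate slides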
- assay.setup: small-molecule microarray binding, higher = more signal
Give measured composite z-score for each item. Keep answers brief.
Number, no unit, nothing else.

### Prompt I have this compound here, "CC(C)[Si](C#CCCCC#N)(O[C@H](c1ccccc1)c1cn([C@H](C)c2ccccc2)nn1)C(C)C" , and I need its recorded composite z-score.
### Response 1.24

### Prompt I have this compound here, COC(=O)C1(CC(C)C)C=C2C(=C(C(C)C)C(=O)C2C)CN1 (stereo not drawn) , and I need its recorded composite z-score.
### Response -0.923

### Prompt I have this compound here, "Cc1c(-c2ccc(-c3ccc(Cl)c(Cl)c3)o2)nc(-c2ccccc2)c2c1CO[Si]2(C(C)C)C(C)C" , and I need its recorded composite z-score.
### Response 0.295

### Prompt I have this compound here, CC(C)C[C@H]1NC(=O)[C@@]23C(=O)N[C@@H](Cc4ccccc4)C2[C@H](C)[C@@]2(C)O[C@H]2C3/C=C/C/C=C\CNC(=O)[C@@H]2CCCN2C1=O (stereo partly drawn) , and I need its recorded composite z-score.
### Response 0.975

### Prompt I have this compound here, "COc1ccc([Si](C)(C)[C@H]2[C@H](CCn3cc([C@H](O)c4ccccc4)nn3)O[C@@]3(C(=O)N(C)c4c(Br)cc(C)cc43)[C@@H]2C)cc1" , and I need its recorded composite z-score.
### Response 0.0516

### Prompt I have this compound here, "O=c1cccc(-c2ccccc2C(F)(F)F)o1" , and I need its recorded composite z-score.
### Response -0.519

### Prompt I have this compound here, CC(C)c1ccc(NN2C(C(O)C(C)C)C=CC3C(=O)N(c4ccccc4)C(=O)C32)cc1 (stereo not drawn) , and I need its recorded composite z-score.
### Response 1.31

### Prompt I have this compound here, "CCC[C@@H]1[C@@H](Sc2ccccc2)[C@@H](C(=O)O)[C@H](c2ccc(C)cc2)N1S(=O)(=O)c1ccc(C)cc1" , and I need its recorded composite z-score.
### Response 1.33

----------
- test.details: small-molecule microarray binders of probe aCHRDL2, primary screen, biochemical, biotinylated probe, 635/667 nm fluorescence (AID 1100)
- assay.setup: higher = more signal
Lab note: anything with composite z-score at or over 0.4 counts as condition met; the rest go in condition not met.

### Prompt # bool: composite z-score of Cc1ccccc1C(O)C1C=CC2C(=O)N(c3ccccc3)C(=O)C2N1Nc1ccccc1F (centres undefined) >= 0.4
### Response condition met

### Prompt # bool: composite z-score of "COCC1=C([C@H](O)CCc2ccccc2)[C@H](CO)n2c(=O)n(-c3ccccc3)c(=O)n2C1" >= 0.4
### Response condition not met

### Prompt # bool: composite z-score of "CC(C)(C)OC(=O)CC[C@]1(C(=O)N2CCOCC2)N=C(c2ccc(OCCCO)cc2)O[C@H]1c1ccccc1CN=[N+]=[N-]" >= 0.4
### Response condition met

### Prompt # bool: composite z-score of CC[C@H](C)C(=O)O[C@H]1CC[C@]2(C)C3=C(CCC2C1(C)C)[C@]1(C)CC[C@H]([C@H](C)CCCC(C)C)[C@@]1(C)CC3 (some centres undefined) >= 0.4
### Response condition not met

### Prompt # bool: composite z-score of C=CCC(OC(C)=O)[C@@H]1[C@@H](N(Cc2cc3ccccc3o2)C(=O)Cc2ccc(OC)cc2)c2cc(OCCCO)ccc2N1C(=O)Cc1ccc2ccccc2c1 (some centres undefined) >= 0.4
### Response condition met

### Prompt # bool: composite z-score of "COc1ccc(CC[C@H](O)c2cccc(OCC(=O)OC(C)(C)C)c2)cc1" >= 0.4
### Response condition not met

### Prompt # bool: composite z-score of "NC(=O)NCC#Cc1ccc2c(c1)[C@]1(C(=O)N2)[C@H](C(=O)Nc2nc3ccccc3s2)[C@H]2C(=O)O[C@H](c3ccccc3)[C@H](c3ccccc3)N2[C@@H]1c1ccc(OCCO)cc1" >= 0.4
### Response condition met

### Prompt # bool: composite z-score of "C=CCNC(=O)[C@@H]1[C@H]2C(=O)O[C@H](c3ccccc3)[C@H](c3ccccc3)N2[C@H](c2ccccc2OCCO)[C@@]12C(=O)N(C(=O)OCCOC)c1ccc(C#CCCO)cc12" >= 0.4
### Response condition not met

### Prompt # bool: composite z-score of "COC(=O)c1c(CC[C@@H](CO)NC(=O)N[C@@H](Cc2ccccc2)Cn2cc(-c3cncn3C)nn2)oc(C(C)=O)c1C(=O)OC" >= 0.4
### Response condition not met

### Prompt # bool: composite z-score of "C=C(/C(=C/C[C@H](OC(=O)c1ccncc1)c1ccccc1OCCO)c1cc(C(=O)OC)ccc1OC)C(C)C" >= 0.4
### Response condition not met

### Prompt # bool: composite z-score of "CCCC[C@H]1OB(O)C[C@H]2C1=C(C)C[C@H]1C(=O)C=CC(=O)[C@H]12" >= 0.4
### Response condition not met

### Prompt # bool: composite z-score of C=CCC(OC(C)=O)[C@@H]1[C@@H](N(Cc2cc3ccccc3o2)C(=O)Cc2ccc(OC)cc2)c2cc(OCCCO)ccc2N1C(=O)Cc1ccc(OC)cc1 (some centres undefined) >= 0.4
### Response condition not met

### Prompt # bool: composite z-score of "CO[C@H]1O[C@H](CO)[C@@H](OC(=O)Nc2ccccc2)[C@@H]2OC(=O)[C@H](Cc3ccccc3)C/C=C/C[C@@H](Cc3ccccc3)C(=O)O[C@@H]12" >= 0.4
### Response condition met
